- assay.procedure: cell number (cell viability) in A549 cells, Hoechst 33342, automated microscopy
- Format: cell-based, human
- measurement.setup: human, A549 cells (infected with rubella virus RA27/3); A549 cells, 1 µM, compared with vehicle alone; read-out: cell viability in primary screen
A collection of compounds and their measured viability at 48 h, 1 µM

O=C(/C=C/c1cccnc1)NCCCCC1CCN(C(=O)c2ccccc2)CC1	> 60%

# input for lookup
IN: Consider the compound shown here: `O=C1NC(=O)C(c2cnc3ccccn23)=C1c1cn2c3c(cc(F)cc13)CN(C(=O)N1CCCCC1)CC2` What is its recorded viability at 48 h, 1 µM?
OUT: > 60%
